Answer each item with its documented inhibition.
Target: Serine/threonine-protein kinase DCLK2 (Homo sapiens) (UniProt Q8N568);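 further: each value is a mean percent inhibition of DCLK2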
Sequence (whole entry): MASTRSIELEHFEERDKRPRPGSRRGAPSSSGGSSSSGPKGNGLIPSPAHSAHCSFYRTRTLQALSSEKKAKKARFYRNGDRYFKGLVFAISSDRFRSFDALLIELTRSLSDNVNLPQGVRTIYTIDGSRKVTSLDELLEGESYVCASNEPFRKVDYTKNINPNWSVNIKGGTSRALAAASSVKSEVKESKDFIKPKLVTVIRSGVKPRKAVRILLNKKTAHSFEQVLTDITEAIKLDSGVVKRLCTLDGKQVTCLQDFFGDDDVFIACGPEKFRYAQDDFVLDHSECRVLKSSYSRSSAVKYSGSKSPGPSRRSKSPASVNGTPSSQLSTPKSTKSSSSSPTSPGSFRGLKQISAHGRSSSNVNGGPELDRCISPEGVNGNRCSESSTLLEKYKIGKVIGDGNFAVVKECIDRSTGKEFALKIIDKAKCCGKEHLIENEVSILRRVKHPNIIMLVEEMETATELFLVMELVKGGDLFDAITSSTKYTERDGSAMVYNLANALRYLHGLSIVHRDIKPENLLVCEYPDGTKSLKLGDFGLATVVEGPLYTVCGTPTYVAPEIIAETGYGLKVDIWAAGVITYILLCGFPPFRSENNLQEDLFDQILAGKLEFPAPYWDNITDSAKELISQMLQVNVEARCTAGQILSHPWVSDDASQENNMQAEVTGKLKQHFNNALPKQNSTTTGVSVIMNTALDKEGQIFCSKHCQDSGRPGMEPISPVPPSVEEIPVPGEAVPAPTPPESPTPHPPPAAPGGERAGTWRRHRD
Conditions: at 1 µM
Answers are plain numbers, in %.

Reported inhibition of COc1cc(Nc2nccc(Nc3ccc4c(C)n[nH]c4c3)n2)cc(OC)c1OC : 2.5

GET /value?item= CNC(=O)c1cncc(/C=C/c2ccccc2Cl)c1 &field=inhibition returns -3.35

Lookup result for CCN(CC)S(=O)(=O)c1ccc(OC)c(Nc2ncc(-c3ccccc3)o2)c1 ; measured inhibition: 3.38

Entry under test: Cc1cccc(Nc2ncc(-c3ccccc3)o2)c1 . Its inhibition was 1.2

Measured inhibition, CS(=O)(=O)CCNCc1ccc(-c2ccc3ncnc(Nc4ccc(OCc5ccccc5)c(C(F)(F)F)c4)c3c2)o1 : 2.23

So for CCn1cc(-c2ccnc3[nH]ccc23)c(-c2cccc(NC(=O)Nc3ccc(OCc4ccccc4)cc3)c2)n1 , the logged inhibition turned out to be -0.63

NS(=O)(=O)c1ccc(Nc2ncc(-c3ccccc3)o2)cc1 yielded inhibition of 1.65

inhibition for Cc1ccc2c(-c3ccnc(Nc4ccccc4)n3)c(-c3ccc(F)cc3)nn2n1 is 1.97

inhibition in this record for Fc1ccc(-c2nn3ccccc3c2-c2ccncc2)cc1 : -2.66

Okay, now this compound:
inhibition reading for COc1ccc(-c2oc3ncnc(N)c3c2-c2ccc(NC(=O)Nc3cc(C(F)(F)F)ccc3F)cc2)cc1 : 6.21

###

Provide the reported inhibition of each item.
Biological target: Serine/threonine-protein kinase pim-2 (Homo sapiens);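 further: each value is a mean of the inhibition measurements against the kinase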
Conditions: at 1 µM
Answers are plain numbers, in %.

Reference set (2 entries):
Quick note, inhibition for NS(=O)(=O)c1ccc(N/N=C2\C(=O)Nc3ccc4ncccc4c32)cc1 landed at 9.88

molecule CNC(=O)c1cncc(/C=C/c2ccccc2Cl)c1 , inhibition observed: 0.04

Would you mind listing inhibition for each of the following molecules?
1. c1ccc(-c2nc3n(c2-c2ccc4c(c2)OCO4)CCC3)nc1
2. NC(=O)c1sc(-n2cnc3ccc(C(F)(F)F)cc32)cc1OCc1ccccc1Br
3. COC(=O)Nc1nc2ccc(Oc3ccc(NC(=O)Nc4cccc(Cl)c4)cc3)cc2[nH]1

Output:
[0.83, -0.68, -1.04]
